# system: HIV-1 PR (Human immunodeficiency virus type 1 group M subtype B, UniProt P04585)
# measurement-protocol: HIV-protease inhibitory activity assay (FRET peptide substrate)
# settings: Test Example 1
parameter-measured: pIC50
Give bare numbers, as −log10 of the molar value.

- COc1ccc(S(=O)(=O)N(CC(C)C)CC(O)C(Cc2ccc(N3CC(Oc4cc5ccccc5cc4C(=O)Nc4sc5c(c4C(=O)O)CC(C)(C)CC5)C3)cc2)NC(=O)OC2COC3(C)OCCC23)cc1 (stereo not drawn) [Compound I-671]: 7.46

For each listed entry, give its pIC50.
1. COc1ccc(S(=O)(=O)N(CC(C)C)CC(O)C(Cc2ccc(N(C)Cc3ccc(Cl)cc3C(=O)Nc3sc4c(c3C(=O)O)CC(C)(C)CC4)cc2)NC(=O)OC2COC3(C)OCCC23)cc1 (stereo not drawn) [Compound I-659]
2. COc1ccc(S(=O)(=O)N(CC(C)C)CC(O)C(Cc2ccc(N(CCC(C)(C)C)Cc3ccccc3-c3sc4c(c3C(=O)O)CC(C)(C)CC4)cc2)NC(=O)OC2COC3(C)OCCC23)cc1 (stereo not drawn) [Compound I-459]

1: 8.02; 2: 7.74
